System: NPC1 promoter
Assay: qHTS of NPC1 Promoter-Luciferase Reporter Gene Assay (firefly, Huh7)
Type: cell-based, human
Settings: 24 hours
So I've got a bunch of compounds here, and I need their NPC1 Eff. values.
One number for each entry, in %.

For orientation, consider the following solved cases.
- COc1ccc(NC(=O)c2[nH]c(C)c(C(C)=O)c2C)cc1S(=O)(=O)Nc1ccc(Br)cc1 [Example 36]: 150
- Cc1ccccc1C(=O)Nc1cccc(S(=O)(=O)N(C)C)c1 [Example 14]: 51
- COc1ccc(NC(=O)c2[nH]c(C)c(C(C)=O)c2C)cc1S(=O)(=O)Nc1cccc(C#N)c1 [Example 40]: 129
- Cc1cccc(C(=O)Nc2cccc(S(=O)(=O)N(C)C)c2)c1 [Example 15]: 81

# next compound below
The compound listed as CC(=O)c1c(C)[nH]c(C(=O)Nc2ccc(C)c(S(=O)(=O)Nc3ccc(Br)cc3)c2)c1C [Example 34] shows NPC1 Eff. equal to 248

Values from patent US10239830B2
